Reference source: the kinase profiling compilation of Christmann-Franck et al. (2016)

target: MAP2K6 (human); assay: KINOMEscan competition binding; details: compound 10.0 µM
Listing of entries alongside the reported kinase still bound, per cent of control.
RECORDED METRIC: kinase still bound, per cent of control (%)

>>> df
                              line_notation  recorded_measurement
0  CCN1CCN(C(=O)Cc2ccc(Nc3ncc(F)c(Nc4ccc(C(=O)Nc5ccccc5Cl)cc4)n3)cc2)CC1                    44
1  O=C1NC(=O)/C(=C/c2ccc3nccc(-c4ccncc4)c3c2)S1                    69
2  O=c1cc(N2CCOCC2)oc2c(-c3cccc4c3sc3ccccc34)cccc12                    73
3  N#CCNC(=O)c1ccc(-c2ccnc(Nc3ccc(N4CCOCC4)cc3)n2)cc1                    77
4  NC(=O)Nc1cc(-c2cccc(F)c2)sc1C(=O)N[C@@H]1CCCNC1                   3.8

---

tested on: RET (human), P07949 [V804M]; experiment: KINOMEscan competition binding; conditions: compound 10.0 µM
Sequence (P07949 whole entry V804M, looked up): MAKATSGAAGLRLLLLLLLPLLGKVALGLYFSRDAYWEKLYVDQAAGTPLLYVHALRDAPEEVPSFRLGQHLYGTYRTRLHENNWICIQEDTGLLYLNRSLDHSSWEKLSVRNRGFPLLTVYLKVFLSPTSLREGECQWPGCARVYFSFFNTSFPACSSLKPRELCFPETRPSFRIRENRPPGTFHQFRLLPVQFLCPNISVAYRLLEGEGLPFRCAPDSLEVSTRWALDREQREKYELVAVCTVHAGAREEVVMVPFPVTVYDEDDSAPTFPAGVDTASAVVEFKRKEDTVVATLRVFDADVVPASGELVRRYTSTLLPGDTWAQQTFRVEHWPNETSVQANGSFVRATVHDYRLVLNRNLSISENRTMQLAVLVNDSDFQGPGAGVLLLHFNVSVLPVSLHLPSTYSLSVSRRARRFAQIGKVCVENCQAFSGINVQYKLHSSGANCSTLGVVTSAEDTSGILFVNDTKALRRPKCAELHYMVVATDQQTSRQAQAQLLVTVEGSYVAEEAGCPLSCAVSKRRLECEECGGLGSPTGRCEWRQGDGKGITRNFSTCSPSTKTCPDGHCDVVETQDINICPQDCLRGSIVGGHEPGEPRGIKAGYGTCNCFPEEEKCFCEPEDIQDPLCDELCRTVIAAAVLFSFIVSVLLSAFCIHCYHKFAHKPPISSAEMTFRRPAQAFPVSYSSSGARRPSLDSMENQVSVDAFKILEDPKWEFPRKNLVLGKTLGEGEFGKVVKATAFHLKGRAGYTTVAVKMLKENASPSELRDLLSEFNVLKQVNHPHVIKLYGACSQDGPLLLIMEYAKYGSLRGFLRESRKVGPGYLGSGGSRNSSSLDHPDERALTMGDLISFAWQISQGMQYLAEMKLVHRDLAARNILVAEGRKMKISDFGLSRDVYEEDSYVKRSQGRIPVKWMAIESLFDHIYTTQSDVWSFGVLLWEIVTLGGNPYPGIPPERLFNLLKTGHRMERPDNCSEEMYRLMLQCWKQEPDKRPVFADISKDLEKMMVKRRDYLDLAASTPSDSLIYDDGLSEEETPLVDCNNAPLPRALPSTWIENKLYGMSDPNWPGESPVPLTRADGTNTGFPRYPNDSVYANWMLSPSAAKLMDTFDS
Listing of entries alongside the reported kinase still bound, per cent of control.
RECORDED METRIC: kinase still bound, per cent of control (%)

>>> print(df.to_string())
                              line_notation                system_tested  recorded_measurement
0  CC(=O)c1c(C)c2cnc(Nc3ccc(N4CCNCC4)cn3)nc2n(C2CCCC2)c1=O  RET (human), P07949 [V804M]                    14
1  O=C(NC1CC1)c1cccc(-c2ccc3c(NC(=O)C4CC4)n[nH]c3c2)c1  RET (human), P07949 [V804M]                    84
2  C=CC(=O)Nc1cc(NC(=O)c2ccc(C)c(NC(=O)c3ccno3)c2)cc(C(F)(F)F)c1  RET (human), P07949 [V804M]                   100
3  O=C1Nc2ccc(I)cc2/C1=C/c1cc(Br)c(O)c(Br)c1  RET (human), P07949 [V804M]                   100
4  COc1ccc(N(C(=O)Oc2c(C)cccc2C)c2ccnc(Nc3ccc(N4CCN(C)CC4)cc3)n2)c(OC)c1  RET (human), P07949 [V804M]                    66
5  O=C(NOC[C@H](O)CO)c1ccc(F)c(F)c1Nc1ccc(I)cc1F  RET (human), P07949 [V804M]                   100
6  C[C@@H](Oc1cc(-n2cnc3ccc(CN4CCN(C)CC4)cc32)sc1C(N)=O)c1ccccc1C(F)(F)F  RET (human), P07949 [V804M]                   100
7  CCN1CCN(Cc2ccc(Nc3ncc4c(n3)N(C)c3ccccc3C(=O)N4C)cc2C(F)(F)F)CC1  RET (human), P07949 [V804M]                   1.2
8  O=c1[nH]c2ccccc2n1C1CCN(Cc2ccc(-c3nc4cc5[nH]cnc5cc4nc3-c3ccccc3)cc2)CC1  RET (human), P07949 [V804M]                    91
